Target: Cyno TfR apical permuted N-term Avi-His (cynomolgus)
Sequence (chain, as listed by the source limits assumed): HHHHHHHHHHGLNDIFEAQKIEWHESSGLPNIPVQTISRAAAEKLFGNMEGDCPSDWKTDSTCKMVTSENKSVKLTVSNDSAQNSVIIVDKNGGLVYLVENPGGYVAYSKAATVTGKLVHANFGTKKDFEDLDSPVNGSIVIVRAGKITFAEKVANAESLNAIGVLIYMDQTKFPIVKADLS
Assay: SPR (Carterra LSA), 2+2 captured
measuredProperty: pKd
In plain terms, pKd is the concentration in mol/L turned into minus its base-10 logarithm.

binder	measuredProperty	measuredNumber
TFR.15.WH8.1.42A.3x(G4S) 2+2 anti-TfR bispecific antibody (bispecific antibody, part only; not given: isotype IgG backbone and linker, not shown: another chain or arm of the molecule; a dimerising Fc or GST; large carriers; small tags and cut ends) scFv: QVQLVQSGAEVKKPGASVKVSCKASGYTFTSYYMHWVRQAPGQGLEWMGNIYPGSGSSNYAQKFQGRVTMTRDTSTSTVYMELSSLRSEDTAVYYCTRSSYYGNFDTMDNWGQGTTVTVSSGGGGSGGGGSGGGGSEIVLTQSPATLSLSPGERATLSCRASSSIRAMNWYQQKPGQAPRRLIYDTSNRATGIPARFSGSGSGTDFTLTISSLEPEDFAVYYCHQRSSYPWTFGGGTKVEIK	pKd	7.13

Endpoint output: pKd of TFR.15.WH8.1 2+2 anti-TfR bispecific antibody (bispecific antibody, part only; not given: isotype IgG backbone and linker, not shown: another chain or arm of the molecule; a dimerising Fc or GST; large carriers; small tags and cut ends) scFv: QVQLVQSGAEVKKPGASVKVSCKASGYTFTSYYMHWVRQAPGQGLEWMGNIYPGSGSSNYAQKFQGRVTMTRDTSTSTVYMELSSLRSEDTAVYYCTRSSYYGNFDTMDNWGQGTTVTVSSGGSEGKSSGSGSESKSTGGSEIVLTQSPATLSLSPGERATLSCRASSSIRYMNWYQQKPGQAPRRLIYDTSNRATGIPARFSGSGSGTDFTLTISSLEPEDFAVYYCHQRSSYPWTFGGGTKVEIK . Value?
7.77
